// values below are reported pIC50
Biological target: Ephrin type-A receptor 2 (Homo sapiens)
Sequence (P29317 whole entry, the tested form may be a part): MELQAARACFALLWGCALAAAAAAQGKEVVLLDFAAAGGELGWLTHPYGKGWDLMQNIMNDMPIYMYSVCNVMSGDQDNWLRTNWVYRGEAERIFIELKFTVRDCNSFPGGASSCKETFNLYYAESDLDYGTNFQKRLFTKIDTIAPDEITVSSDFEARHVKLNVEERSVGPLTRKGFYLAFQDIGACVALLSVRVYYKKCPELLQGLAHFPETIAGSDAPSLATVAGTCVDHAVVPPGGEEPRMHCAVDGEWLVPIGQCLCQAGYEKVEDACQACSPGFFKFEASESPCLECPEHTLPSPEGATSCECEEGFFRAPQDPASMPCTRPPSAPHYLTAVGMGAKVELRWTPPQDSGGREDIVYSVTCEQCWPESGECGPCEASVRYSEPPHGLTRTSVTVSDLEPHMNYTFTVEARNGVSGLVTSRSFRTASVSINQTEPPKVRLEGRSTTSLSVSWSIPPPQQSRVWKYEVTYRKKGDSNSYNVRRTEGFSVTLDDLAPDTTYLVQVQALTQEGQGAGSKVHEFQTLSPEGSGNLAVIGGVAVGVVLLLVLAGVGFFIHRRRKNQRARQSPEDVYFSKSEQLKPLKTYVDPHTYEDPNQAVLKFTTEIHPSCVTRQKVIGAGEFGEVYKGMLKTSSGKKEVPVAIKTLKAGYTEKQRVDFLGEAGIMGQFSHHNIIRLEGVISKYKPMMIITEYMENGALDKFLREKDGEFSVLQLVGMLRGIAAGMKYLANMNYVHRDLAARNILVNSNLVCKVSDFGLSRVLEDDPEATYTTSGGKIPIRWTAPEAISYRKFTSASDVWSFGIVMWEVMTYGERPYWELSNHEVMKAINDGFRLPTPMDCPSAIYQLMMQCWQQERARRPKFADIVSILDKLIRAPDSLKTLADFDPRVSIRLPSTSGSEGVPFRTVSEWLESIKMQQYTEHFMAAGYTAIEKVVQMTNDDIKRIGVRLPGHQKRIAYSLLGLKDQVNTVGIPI
Experiment: Agonist activity at IgG1 Fc region fused-immobilized EphA2 ectodomain (unknown origin) assessed as inhibition of EphA2/ephrin-A5 AP interaction incubated for 3 hrs by ELISA
pIC50: −log10 of the molar value.
quantity measured: pIC50

substance=H-SWLAYAGAVSYR-OH quantity_measured=pIC50 val="≤ 4.00"
substance=H-SWLSYPGAVSYR-OH quantity_measured=pIC50 val="< 4.00"
substance=H-SALAYPGAVSYR-OH quantity_measured=pIC50 val="≤ 4.00"
substance=H-SWLAAPGAVSYR-OH quantity_measured=pIC50 val="≤ 4.00"
